Reported values: pIC50 for GRK5 (Homo sapiens, UniProt P34947), one per item.
Counter-ions that a name gives are not always drawn.
Here pIC50 is given on a logarithmic scale as minus log10 of the concentration in mol/L.

{"compound": "Fc1ccc([C@@H]2CCNC[C@H]2COc2cc3cn[nH]c3cc2F)cc1", "measured.target": "GRK5 (Homo sapiens, UniProt P34947)", "pIC50": 6.09}

Query: State the recorded pIC50 for this entry: COc1cccc(OC)c1CNC(=O)c1cc([C@@H]2CCNC[C@H]2COc2cc3cn[nH]c3cc2F)ccc1F
Reply: 5.09

Query: Next up: Cc1cccc(C)c1CNC(=O)c1cc([C@@H]2CCNC[C@H]2COc2ccc3c(c2)OCO3)ccc1F [Example E13, hydrochloride]
Reply: 4.25

Query: Same question for O=C(NCc1c(F)cccc1F)c1cc([C@@H]2CCNC[C@H]2COc2ccc3c(c2)OCO3)ccc1F [Example E11, hydrochloride] please.
Reply: 4.34

Query: Now this one: O=C(NCc1c(C(F)(F)F)cccc1C(F)(F)F)c1cc([C@@H]2CCNC[C@H]2COc2ccc3c(c2)OCO3)ccc1F [Example E14, hydrochloride]
Reply: 4.39

---

# measured.target: GRK1 (Bos taurus, UniProt P28327)
# Sequence (P28327 1-535 limits assumed): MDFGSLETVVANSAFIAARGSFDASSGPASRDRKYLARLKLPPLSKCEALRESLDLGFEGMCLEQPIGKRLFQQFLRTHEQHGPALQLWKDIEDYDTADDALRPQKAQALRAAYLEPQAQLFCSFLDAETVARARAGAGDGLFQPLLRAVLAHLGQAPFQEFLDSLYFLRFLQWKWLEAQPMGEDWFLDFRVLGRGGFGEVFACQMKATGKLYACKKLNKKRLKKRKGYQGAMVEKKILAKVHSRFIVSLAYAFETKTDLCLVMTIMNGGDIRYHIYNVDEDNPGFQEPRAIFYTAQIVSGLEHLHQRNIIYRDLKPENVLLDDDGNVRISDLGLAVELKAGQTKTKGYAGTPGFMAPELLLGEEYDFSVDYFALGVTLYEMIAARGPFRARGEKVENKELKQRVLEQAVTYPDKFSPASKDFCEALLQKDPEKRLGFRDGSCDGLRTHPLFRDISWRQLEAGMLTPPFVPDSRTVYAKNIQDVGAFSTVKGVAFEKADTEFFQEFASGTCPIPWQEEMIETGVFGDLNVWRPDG
Where a name gives a salt, the structure may show the parent alone.
# IC50 per record follows
Please respond with the number in µM and leave the unit unwritten.

{"compound": "O=C(NCc1c(C(F)(F)F)cccc1C(F)(F)F)c1cc([C@@H]2CCNC[C@H]2COc2ccc3c(c2)OCO3)ccc1F [Example E14, hydrochloride]", "readout.value": 23.6}
{"compound": "CN1CC[C@@H](c2ccc(F)cc2)[C@H](COc2ccc3[nH]ncc3c2)C1", "readout.value": 51.8}
{"compound": "O=C(NCc1c(Cl)cccc1Cl)c1cc([C@@H]2CCNC[C@H]2COc2ccc3c(c2)OCO3)ccc1F [Example E16, hydrochloride]", "readout.value": 16.6}
{"compound": "COc1cccc(OC)c1CNC(=O)c1cc([C@@H]2CCNC[C@H]2COc2ccc3c(c2)OCO3)ccc1F [Example E15, hydrochloride]", "readout.value": 22}
{"compound": "Fc1ccc([C@@H]2CCNC[C@H]2COc2ccc3[nH]ncc3c2)cc1", "readout.value": 65.7}

Query: Consider the compound Cc1cccc(C)c1CNC(=O)c1cc([C@@H]2CCNC[C@H]2COc2ccc3c(c2)OCO3)ccc1F [Example E13, hydrochloride] and give its measured IC50.
Reply: 11.3

Query: And what about the compound O=C(Cc1cc([C@@H]2CCNC[C@H]2COc2ccc3c(c2)OCO3)ccc1F)NCCc1c(F)cccc1F [Example E02, hydrochloride] ?
Reply: 95.3

---

# measured.target: GRK1 (Bos taurus, UniProt P28327)
Counter-ions that a name gives are not always drawn.
measured.property: pIC50
# log scale: pIC50 equals minus log10 of the concentration in mol/L

{"molecule": "Fc1ccc([C@@H]2CCNC[C@H]2COc2cc3cn[nH]c3cc2F)cc1 [Example E30]", "pIC50": 5.44}

Pending molecule:
Query: Which pIC50 value is on record for O=C(Cc1cc([C@@H]2CCNC[C@H]2COc2ccc3c(c2)OCO3)ccc1F)NCc1ccccn1 [Example E05, hydrochloride] ?
Reply: 4.23

---

Structures can show the parent of a compound that is named as a salt.
# IC50 measurements, system: UniProt P25098
# Sequence (P25098 whole entry, species assumed): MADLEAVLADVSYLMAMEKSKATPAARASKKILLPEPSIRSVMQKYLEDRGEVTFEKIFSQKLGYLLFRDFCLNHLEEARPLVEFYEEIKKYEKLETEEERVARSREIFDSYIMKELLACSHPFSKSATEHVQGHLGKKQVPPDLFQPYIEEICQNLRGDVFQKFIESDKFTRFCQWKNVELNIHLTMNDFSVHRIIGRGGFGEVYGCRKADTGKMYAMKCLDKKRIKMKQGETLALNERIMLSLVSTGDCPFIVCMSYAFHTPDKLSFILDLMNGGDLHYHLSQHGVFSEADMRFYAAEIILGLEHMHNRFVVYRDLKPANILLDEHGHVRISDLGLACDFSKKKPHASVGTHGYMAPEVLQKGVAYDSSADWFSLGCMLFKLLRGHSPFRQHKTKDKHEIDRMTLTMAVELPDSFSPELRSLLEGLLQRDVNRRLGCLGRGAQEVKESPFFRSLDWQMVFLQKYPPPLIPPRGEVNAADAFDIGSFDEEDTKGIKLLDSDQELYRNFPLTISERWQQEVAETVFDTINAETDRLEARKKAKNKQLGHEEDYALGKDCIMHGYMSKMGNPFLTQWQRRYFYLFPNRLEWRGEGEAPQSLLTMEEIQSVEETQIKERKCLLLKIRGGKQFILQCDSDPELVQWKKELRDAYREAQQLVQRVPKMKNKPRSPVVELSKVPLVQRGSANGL
Mention the unit after the number when you answer.

// solved cases for IC50 follow
{"compound": "Cc1cccc(C)c1CNC(=O)c1cc([C@@H]2CCNC[C@H]2COc2ccc3c(c2)OCO3)ccc1F [Example E13, hydrochloride]", "IC50": "1010 nM"}
{"compound": "CN1CC[C@@H](c2ccc(F)cc2)[C@H](COc2ccc3[nH]ncc3c2)C1 [Example E32]", "IC50": "290 nM"}
{"compound": "Fc1ccc([C@@H]2CCNC[C@H]2COc2cc3cn[nH]c3cc2F)cc1 [Example E30]", "IC50": "140 nM"}
{"compound": "COc1ccccc1CNC(=O)c1cc([C@@H]2CCNC[C@H]2COc2ccc3c(c2)OCO3)ccc1F [Example E09, hydrochloride]", "IC50": "48500 nM"}
{"compound": "O=C(NCc1ccccc1C(F)(F)F)c1cc([C@@H]2CCNC[C@H]2COc2ccc3c(c2)OCO3)ccc1F [Example E10, hydrochloride]", "IC50": "12500 nM"}
{"compound": "O=C(NCc1ccccn1)c1cc([C@@H]2CCNC[C@H]2COc2ccc3c(c2)OCO3)ccc1F [Example E07, hydrochloride]", "IC50": "440 nM"}

Query: Looking for the measured IC50 of O=C(Cc1cc([C@@H]2CCNC[C@H]2COc2ccc3c(c2)OCO3)ccc1F)NCCc1cn[nH]c1 [Example E04, hydrochloride] , can you help?
Reply: 620 nM

---

# measured.target: GRK5 (Homo sapiens, UniProt P34947)
# Sequence (P34947 whole entry, species assumed): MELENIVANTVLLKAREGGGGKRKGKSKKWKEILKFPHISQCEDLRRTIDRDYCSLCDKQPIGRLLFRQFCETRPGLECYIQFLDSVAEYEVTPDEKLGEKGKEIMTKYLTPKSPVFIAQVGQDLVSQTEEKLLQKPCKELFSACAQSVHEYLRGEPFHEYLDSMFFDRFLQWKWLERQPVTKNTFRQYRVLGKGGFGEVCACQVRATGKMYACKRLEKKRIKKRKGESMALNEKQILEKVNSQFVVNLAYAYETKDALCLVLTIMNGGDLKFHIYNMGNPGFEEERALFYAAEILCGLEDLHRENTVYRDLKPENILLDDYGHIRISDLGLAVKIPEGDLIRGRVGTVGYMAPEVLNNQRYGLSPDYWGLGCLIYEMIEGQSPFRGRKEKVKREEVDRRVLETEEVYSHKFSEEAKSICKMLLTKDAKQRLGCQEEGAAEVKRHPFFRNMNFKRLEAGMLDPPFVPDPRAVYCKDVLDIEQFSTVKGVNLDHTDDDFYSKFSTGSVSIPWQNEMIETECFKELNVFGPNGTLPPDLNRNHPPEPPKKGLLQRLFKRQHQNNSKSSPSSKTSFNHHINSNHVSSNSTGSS
pIC50: −log10 of the molar value. Where a name gives a salt, the structure may show the parent alone.
measured.property: pIC50

Worked examples follow.
{"molecule": "O=C(Cc1cc([C@@H]2CCNC[C@H]2COc2ccc3c(c2)OCO3)ccc1F)NCc1c(F)cccc1F [Example E01, hydrochloride]", "measured.target": "GRK5 (Homo sapiens, UniProt P34947)", "pIC50": "< 4.00"}
{"molecule": "O=C(Cc1cc([C@@H]2CCNC[C@H]2COc2ccc3c(c2)OCO3)ccc1F)NCCc1c(F)cccc1F [Example E02, hydrochloride]", "measured.target": "GRK5 (Homo sapiens, UniProt P34947)", "pIC50": "< 4.00"}
{"molecule": "O=C(Cc1cc([C@@H]2CCNC[C@H]2COc2ccc3c(c2)OCO3)ccc1F)NCCc1cn[nH]c1 [Example E04, hydrochloride]", "measured.target": "GRK5 (Homo sapiens, UniProt P34947)", "pIC50": "< 4.00"}

Query: Looking for the measured pIC50 of COc1ccccc1CNC(=O)c1cc([C@@H]2CCNC[C@H]2COc2ccc3c(c2)OCO3)ccc1F [Example E09, hydrochloride] , can you help?
Reply: < 4.00

Query: What do you have for COc1cccc(OC)c1CNC(=O)c1cc([C@@H]2CCNC[C@H]2COc2ccc3c(c2)OCO3)ccc1F [Example E15, hydrochloride] ?
Reply: < 4.00

Query: Now give it for O=C(NCc1c(Cl)cccc1Cl)c1cc([C@@H]2CCNC[C@H]2COc2ccc3c(c2)OCO3)ccc1F [Example E16, hydrochloride] too.
Reply: 4.47

Query: What would you report for O=C(NCc1ccccn1)c1cc([C@@H]2CCNC[C@H]2COc2ccc3c(c2)OCO3)ccc1F [Example E07, hydrochloride] ?
Reply: 4.82

Query: Entry to check: COc1ccccc1CNC(=O)Cc1cc([C@@H]2CCNC[C@H]2COc2ccc3c(c2)OCO3)ccc1F [Example E06, hydrochloride]
Reply: < 4.00

Query: Try this molecule too: Fc1ccc([C@@H]2CCNC[C@H]2COc2ccc3[nH]ncc3c2)cc1
Reply: 4.89

Query: Now give it for O=C(Cc1cc([C@@H]2CCNC[C@H]2COc2ccc3c(c2)OCO3)ccc1F)NCc1ccccn1 [Example E05, hydrochloride] too.
Reply: < 4.00

---

# measured.target: GRK5 (Homo sapiens, UniProt P34947)
pIC50: −log10 of the molar value. Structures can show the parent of a compound that is named as a salt.
measured.property: pIC50

Previously resolved entries follow.
{"compound": "CN1CC[C@@H](c2ccc(F)cc2)[C@H](COc2ccc3[nH]ncc3c2)C1", "readout.value": 4.48}
{"compound": "O=C(NCc1ccccc1C(F)(F)F)c1cc([C@@H]2CCNC[C@H]2COc2ccc3c(c2)OCO3)ccc1F [Example E10, hydrochloride]", "readout.value": 4.21}
{"compound": "O=C(Cc1cc([C@@H]2CCNC[C@H]2COc2ccc3c(c2)OCO3)ccc1F)NCCc1ccccn1 [Example E03, hydrochloride]", "readout.value": "< 4.00"}

Query: Recorded pIC50 for O=C(NCCc1cn[nH]c1)c1cc([C@@H]2CCNC[C@H]2COc2ccc3c(c2)OCO3)ccc1F [Example E08, hydrochloride] , please?
Reply: < 4.00

Query: Input O=C(NCCc1c[nH]cn1)c1cc([C@@H]2CCNC[C@H]2COc2ccc3c(c2)OCO3)ccc1F
Reply: < 4.00

Query: Further, for O=C(NCCc1cccnc1)c1cc([C@@H]2CCNC[C@H]2COc2ccc3c(c2)OCO3)ccc1F ?
Reply: < 4.00
